Method: SK-BR-3 cell growth inhibitors, pilot screen, 24 h, human (AID 572);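 note: compound exposure lasted between 18 and 24 h rather than exactly 24 h; 100% = carrier-treated control wells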
Run Conditions: SK-BR-3 viability, CellTiter-Glo luminescence, at 10 µM, stronger effect = lower value
Activity calls are given as the source filed them.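 Rule for the calls: active = viability at or below 10% of carrier control in both of two separate runs; inconclusive = viability at or below 10% in only one of the two runs; inactive = the rest.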
Please respond with reported viability for every item in the list.

# query: viability of entry `COc1cccc(C(=O)CN2CCC(NC(=O)NC3CCCCC3)CC2)c1` 92% (inactive)

Ok, now `O=C(COC(=O)c1ccccc1O)Nc1ccc(OC(F)F)cc1` 78% (inactive)

Ok, now CC1CCC(C(=O)NC(C(=O)NCCN2CCC(C)CC2)C(C)C)CC1 (centres undefined) 126% (inactive)

Ok, now `CCCN(CCC)C(=O)C1CCN(c2cc(C)nc3c(-c4ccc(OC)c(OC)c4)c(C)nn23)CC1` 81.5% (inactive)

Ok, now `CCCCNC(=O)c1c(C)cc(=O)oc1C` 102% (inactive)

Ok, now `CNC(=O)c1c(O)c2cccc3c2n(c1=O)CC3` 83.5% (inactive)

Ok, now `COc1cccc(NC(=O)CSc2nnc(-c3cccs3)n2C)c1` 98% (inactive)

Ok, now `Cc1nnc(SCC(=O)Nc2ccc(Br)cn2)[nH]c1=O` 118% (inactive)

Ok, now `Cc1nnc(NC(=O)c2ccccc2F)s1` 100% (inactive)

Ok, now `COc1cc(S(=O)(=O)N2CCOCC2)ccc1NC(=O)COC(=O)c1ccccn1` 114% (inactive)

Ok, now `Cc1cc(C(=O)NCCCc2ccccc2)no1` 100% (inactive)

Ok, now `CCn1nnc(NC(=O)c2ccc(-c3ccc(Cl)cc3)o2)n1` 87.5% (inactive)

Ok, now O=c1[nH]cnc2c1nc(SCc1ccccc1)n2C1OC(CO)C(O)C1O (centres undefined) 94.5% (inactive)

Ok, now `CSc1nc(NC(C)(C)C)nc(Oc2ccc(=O)[nH]n2)n1` 101% (inactive)

Ok, now `Cc1cc(-c2ccccc2)c2nncn2n1` 106% (inactive)

Ok, now `N#CCCCCn1c(-c2cncs2)nc2ccccc21` 93.5% (inactive)

Ok, now `O=C(CCSc1ccccc1)N1CCN(C(=O)c2ccco2)CC1` 99% (inactive)

Ok, now `CCOC(=O)CSc1nc2ccccc2c(=O)n1CCN1CCOCC1` 92.5% (inactive)

Ok, now Cc1cccc(N2CCN(C(=O)CCn3c(=S)[nH]c4cc5c(cc4c3=O)OCO5)CC2C)c1 (centres undefined) 86% (inactive)

Ok, now `Cc1cc(C)cc(-n2nnc(C(=O)NCc3ccco3)c2N)c1` 101% (inactive)

Ok, now `CCN(CCCNC(=O)CCNC(=O)Cn1ccc2ccccc2c1=O)c1ccccc1` 97.5% (inactive)

Ok, now `Cc1cnc(C(=O)Nc2ccc(-n3cnnn3)cc2)cn1` 100% (inactive)

Ok, now `Cc1occc1-c1nnc(SCC(=O)N2CCc3ccccc32)o1` 98.5% (inactive)

Ok, now `COc1nc(OC)nc(N2CCC(C(=O)NC3CCCCCC3)CC2)n1` 95.5% (inactive)

Numbers sourced from PubChem BioAssay.
